System: CCRF-CEM leukemia
assay_text: NCI-60 one-dose screen, 48 h
condition_label: 10 µM unless noted
About 83,000 compounds went through this panel and 20% of them were active in at least one assay; those are over-represented in the sample as a whole. Calls of active or inactive are those of the source. How the source made its calls: active means growth percent below 10; inactive means the rest.
Hi there, use one of these labels in your reply, thanks! true for active, false for inactive

Solved cases (5 shown):
- O=C1/C=C/[C@@H](O)[C@@H]2C[C@@H](O)C[C@H]2/C=C/CCC[C@@H](O)CCO1: false
- COc1cccc(/C=C/C(=O)c2cccc(Nc3nc(Nc4ccccc4)nc(Nc4ccccc4)n3)c2)c1: false
- Cc1cccc(Oc2ccc(Nc3ncnc4ccc(NC(=O)CN5CCN(C)CC5)cc34)cc2Cl)c1: true
- COC(=O)CC[C@@H]1O[C@@H](c2ccc(F)cc2)[C@@H](O)[C@H]1O: false
- O=C(/C=C/c1ccc(Oc2ccc(Br)cc2)cc1)c1ccc(Br)cc1: false

## Input Fill in: this test's call for `C=C1C(=O)O[C@H]2[C@H]1CC/C(COC(=O)/C=C\C(=O)NCc1ccc(Cn3c(=O)sn(CCCl)c3=O)cc1)=C\CC[C@@]1(C)O[C@@H]21` is ___
## Output true

## Input Could you please tell me the result logged for CC(C)CCN(CCC(C)C)CC(O)c1cc2c(c3ccccc13)CCCC2 (centres undefined) in this assay?
## Output false

## Input State the result this test recorded for `CN1CCN(Cc2ccc(NC(=O)c3cncc(C#Cc4cnc(N)c5ncccc45)c3)cc2C(F)(F)F)CC1` .
## Output false

## Input # lookup: test call for `Cc1c2cccnc2c(C)c2c1c1cc(CO)ccc1n2C`
## Output false

## Input In this assay, the call recorded for CCCCCCCCCCCCCCCCCC1=NC(C)(C)CN1CC(C)O (centres undefined) was what?
## Output false

## Input Name the outcome recorded for `COc1ccc(C(=O)/C=C/c2ccc(Cl)cc2)cc1S(=O)(=O)Nc1c(N)nc(SC)[nH]c1=O` in the assay.
## Output true

## Input Call for entry `O=C(N=Nc1c(O)[nH]c2ccccc12)Nc1ccc(F)cc1` :
## Output false

## Input Recorded test outcome, item `O=C1/C(=C/c2ccc(O)c(O)c2)COc2ccc(-c3ccccc3)cc21`
## Output false

## Input Each compound tested received a call. Report the one for `O=S(=O)(Oc1ccc(Br)cc1)c1ccc(Cl)cc1` .
## Output false

## Input Look up the recorded call for `C/C(Cc1ccc(Cl)cc1)=C(\c1ccc(OCCCN(C)C)cc1)c1ccc(OC(=O)Cc2ccccc2)cc1` in this test.
## Output false

## Input Kindly provide the recorded test outcome for the following compound: CCN1C(=O)N(CC)C2C1NN=c1s/c(=C3\C(=O)N(CCC(C)C)c4ccccc43)c(=O)n12 (centres undefined)
## Output false

## Input Write down the call the test reported for this compound. Item: `C/C(=N\O)c1ccc(NC(=O)CSc2nnc(-c3cc(-c4ccc(S(C)(=O)=O)cc4)nc4ccccc34)n2-c2ccccc2)cc1`
## Output false

## Input Which outcome did this test record for the compound `CNCc1cccc2c1OCCOCCOCCNS(=O)(=O)c1ccc(cc1)-c1cnc(N)c(n1)C(=O)N2` ?
## Output true

## Input Hello, I am checking results. What call was entered for `O=c1ccc(=O)n(-c2nc(-c3ccc([N+](=O)[O-])cc3)cs2)[nH]1` ?
## Output false
